All figures here come from paper PMC10215749.

Target: T1, Human serum albumin (human, UniProt P02768 25-609)
T1 construct: human serum albumin (HSA), bought from Sigma, coated on microplate wells; also called HSA; HSA target; source: bought: Sigma
Assay: phage binding to coated microplate, read by phage titer (double reciprocal plot); constant HSA coated in microtiter wells, varying input phage until equilibrium, TBST wash, elution with glycine-HCl pH 2.2, input and eluted phage titered; relative dissociation constant = slope/intercept of 1/eluted against 1/input
Conditions: both partners purified
assayEndpoint: pKd
Quick note: pKd means taking -log10 of the concentration in moles per liter.

Query :: Item AESQKLN (DNA GCGGAGAGTTAGAAGCTTAAT (TAG printed as Q); Measured as the peptide on whole phage, not as a free peptide; source: M13 phage clone from the Ph.D.-7 library, amplified in E. coli ER2738, purified (PEG/NaCl precipitation)) [HSA-3 peptide fused phage] has what recorded pKd?
Result :: 6.28
